Every entry's value here was drawn from patent US12636366B2.

test system: non-cancerous retina pigmented epithelial cell line (RPE-1); test: Dark and light cytotoxicity, resazurin cell viability assay, RPE-1; assay type: cell-based; conditions: RPE-1, dark; read-out: IC50 Dark
Below: a set of entries, each annotated with reported IC50.

compound: Cc1ccnc(-c2cc(C)ccn2)c1.F[P-](F)(F)(F)(F)F.F[P-](F)(F)(F)(F)F.[Ru].c1cnc2c(c1)ccc1cccnc12.c1cnc2c(c1)ccc1cccnc12 [Compound 2]
IC50: > 100 µM

--- query ---
Which IC50 is listed for F[P-](F)(F)(F)(F)F.F[P-](F)(F)(F)(F)F.[Ru+2].c1ccc(-c2ccccn2)nc1.c1cnc2c(c1)ccc1cccnc12.c1cnc2c(c1)ccc1cccnc12 [Compound 1] ?
> 100 µM

###

system: CT-26 mouse colon carcinoma cells; assay: Dark and light cytotoxicity, resazurin cell viability assay, CT-26; assay type: cell-based; conditions: CT-26, light 480 nm, 10 min, 3.21 J cm^−2; read-out: IC50 Light
quantity: IC50 (µM)
Report only the number, with the unit µM understood.

# query: IC50 of entry Cc1ccnc(-c2cc(C)ccn2)c1.F[P-](F)(F)(F)(F)F.F[P-](F)(F)(F)(F)F.[Ru].c1cnc2c(c1)ccc1cccnc12.c1cnc2c(c1)ccc1cccnc12
91.2
